Hello, the source for this data is patent US20240199542A1, in case you need it.

Tested on: Lolium multiflorum (LOLMU)
Assay: Herbicidal post-emergence action
Assay type: in vivo
Details: 1280 g/ha, assessed after ca. 3 weeks
assay_readout: Post-emergence activity against LOLMU

[[record]]
compound = "C=CCOC(=O)CC1CCC(=O)N1Cc1cccc(F)c1F (racemic)"
assayed_system = "Lolium multiflorum (LOLMU)"
recorded_result = "90%"

[[record]]
compound = "O=C(O)CC1CCC(=O)N1Cc1cccc(F)c1F (stereo not drawn) [Example I-003]"
assayed_system = "Lolium multiflorum (LOLMU)"
recorded_result = "90%"

[[record]]
compound = "O=C(CC1CCC(=O)N1Cc1cccc(F)c1F)OCCSc1ccc(Cl)cc1 (racemic)"
assayed_system = "Lolium multiflorum (LOLMU)"
recorded_result = "80%"

[[record]]
compound = "CC(C)(C)COC(=O)CC1CCC(=O)N1Cc1cccc(F)c1F (racemic)"
assayed_system = "Lolium multiflorum (LOLMU)"
recorded_result = "80%"

[[record]]
compound = "CCCC(C)OC(=O)CC1CCC(=O)N1Cc1cccc(F)c1F (racemic)"
assayed_system = "Lolium multiflorum (LOLMU)"
recorded_result = "80%"

[[record]]
compound = "O=C(O)CC1CCC(=O)N1Cc1cccc(F)c1F (single isomer, unassigned) [Example I-014]"
assayed_system = "Lolium multiflorum (LOLMU)"
recorded_result = "80%"

[[record]]
compound = "CSCCOC(=O)CC1CCC(=O)N1Cc1cccc(F)c1F (racemic)"
assayed_system = "Lolium multiflorum (LOLMU)"
recorded_result = "90%"

[[record]]
compound = "O=C(CC1CCC(=O)N1Cc1cccc(F)c1F)OCC1CC1 (racemic)"
assayed_system = "Lolium multiflorum (LOLMU)"
recorded_result = "80%"

[[record]]
compound = "C=CCCOC(=O)CC1CCC(=O)N1Cc1cccc(F)c1F (racemic)"
assayed_system = "Lolium multiflorum (LOLMU)"
recorded_result = "80%"

[[record]]
compound = "COCCOC(=O)CC1CCC(=O)N1Cc1cccc(F)c1F (racemic)"
assayed_system = "Lolium multiflorum (LOLMU)"
recorded_result = "80%"

[[record]]
compound = "CC1(C)C(=O)C(C(=O)CC2CCC(=O)N2Cc2cccc(F)c2F)C(=O)C(C)(C)C1=O (racemic)"
assayed_system = "Lolium multiflorum (LOLMU)"
recorded_result = "80%"

[[record]]
compound = "Cc1ccc(CN2C(=O)CCC2CC(=O)O)c(F)c1F (racemic)"
assayed_system = "Lolium multiflorum (LOLMU)"
recorded_result = "80%"

